- test name: S9 Metabolism Assay (half-life by substrate depletion)
- Format: in vitro ADME
- condition info: female, ICR/CD-1, S9 fractions, pH 7.5; mouse S9, 2 μM compound; time plotted in min; read-out: S9 T1/2
Entries get a class label from measured half-life at 2 μM. See ranges: low: < 0.8 h; intermediate: ≥ 0.8 h and < 2 h; high: ≥ 2 h

These solved cases illustrate the format of a correct answer.
INSERT INTO measurements (compound, class_assignment) VALUES
  ('O=C(NCCCN1CCOCC1)c1ccc(Sc2ccc(F)cc2)c([N+](=O)[O-])c1', 'intermediate'),
  ('N#Cc1cc(C(=O)NCCN2CCOCC2)ccc1Sc1ccc(F)cc1', 'low'),
  ('CCN1CCC[C@H]1CNC(=O)c1ccc(Sc2ccc(F)cc2)c([N+](=O)[O-])c1', 'intermediate'),
  ('CN1CCCC1CCNC(=O)c1ccc(Sc2ccc(F)cc2)c([N+](=O)[O-])c1 (centres unmarked)', 'intermediate'),
  ('CCN(CC)CCNC(=O)c1ccc(Sc2ccc(F)cc2)c([N+](=O)[O-])c1', 'low'),
  ('CCN1CCCC1CNC(=O)c1ccc(Sc2ccc(F)cc2)c(F)c1 (centres unmarked)', 'low'),
  ('O=C(NC[C@@H]1CCCN1)c1ccc(Sc2ccc(F)cc2)c([N+](=O)[O-])c1', 'high'),
  ('CCN1CCCC1CNCc1ccc(Sc2ccc(F)cc2)c([N+](=O)[O-])c1 (centres unmarked)', 'low');

Query: Hey, which category is CCN1CCCC1CNC(=O)c1ccc(Sc2ccc(F)cc2)c(S(C)(=O)=O)c1 (centres unmarked) in, do you know?
Reply: high

Query: Hey, which category is O=C(NCCN1CCCC1)c1ccc(Sc2ccc(F)cc2)c([N+](=O)[O-])c1 in, do you know?
Reply: high

Query: Hey, which category is CCN1CCCC1CNC(=O)c1ccc(Sc2ccncc2)c([N+](=O)[O-])c1 (centres unmarked) in, do you know?
Reply: intermediate

Query: Hey, which category is CCN1CCCC1CNC(=O)c1ccc(Sc2ccc(F)cc2F)c([N+](=O)[O-])c1 (centres unmarked) in, do you know?
Reply: intermediate

Query: Hey, which category is CCN1CCC[C@@H]1CNC(=O)c1ccc(Sc2ccc(F)cc2)c([N+](=O)[O-])c1 in, do you know?
Reply: intermediate

---

- test name: S9 Metabolism Assay (half-life by substrate depletion)
- Format: in vitro ADME
- condition info: female, ICR/CD-1, S9 fractions, pH 7.5; mouse S9, 2 μM compound; time plotted in min; read-out: S9 T1/2
What half-life at 2 μM was measured for each of the following?
Answers are plain numbers, in h.

Use the examples below as a reference point.
INSERT INTO results (compound, number) VALUES
  ('CCN1CCCC1CNC(=O)c1ccc(Sc2ccc(OC)cc2)c([N+](=O)[O-])c1 (stereo not shown)', 0.802),
  ('CCN1CCCC1CNC(=O)c1ccc(Sc2cccc(F)c2)c([N+](=O)[O-])c1 (stereo not shown)', 0.587),
  ('CC1C2CCCN2CCN1C(=O)c1ccc(Sc2ccc(F)cc2)c([N+](=O)[O-])c1 (stereo not shown)', 0.445),
  ('CCN1CCCC1CNC(=O)c1ccc(SCc2ccc(F)cc2)c([N+](=O)[O-])c1 (stereo not shown)', 1.6),
  ('N#Cc1cc(C(=O)NCCN2CCOCC2)ccc1Oc1ccc(F)cc1', 1.65);

Okay, here is my list. What is half-life at 2 μM for each of these?
1. CCN1CCCC1CNC(=O)c1ccc(Sc2ccccc2)c([N+](=O)[O-])c1 (stereo not shown)
2. CCN1CCCC1CNC(=O)c1ccc(Sc2ccc(F)cc2)c(C#N)c1 (stereo not shown)

Reply:
0.59
1.08

---

What half-life at 2 μM was measured for each of the following?
- test name: S9 Metabolism Assay (half-life by substrate depletion)
- Assay type: in vitro ADME
- condition info: female, ICR/CD-1, S9 fractions, pH 7.5; mouse S9, 2 μM compound; time plotted in min; read-out: S9 T1/2
- Protocol: Female ICR/CD-1 mouse S9 fractions were purchased from Celsis/In Vitro Technologies (Baltimore, Md.). 25 μl (0.5 mg) of S9 protein was added to a 15 ml glass screw cap tube. 350 μl of a 50 mM Tris, pH 7.5 solution, containing the compound of interest was added on ice. […] The supernatant was analyzed by LC-MS/MS. […] The parent ion and the two most prominent daughter ions were followed to confirm compound identity, although only the most abundant daughter was used for quantitation. […]
One number for each entry, in min.

Use the examples below as a reference point.
INSERT INTO assay_data (molecule, attribute_measured, unit_of_measurement, number) VALUES
  ('CCN1CCCC1CNC(=O)c1ccc(Sc2ccc(F)cc2)c([N+](=O)[O-])c1 (stereo not drawn)', 'half-life at 2 μM', 'min', 119),
  ('CCN1CCCC1CNC(=O)c1ccc(Sc2ccc(Cl)cc2)c([N+](=O)[O-])c1 (stereo not drawn)', 'half-life at 2 μM', 'min', 88.8);

Query molecule follows.
Query: I have this molecule here, CCN1CCCC1CNC(=O)c1ccc(Oc2ccc(F)cc2)c(C#N)c1 (stereo not drawn) , and I need its recorded half-life at 2 μM.
Reply: 118
